GI50 reference
molecular target: BAF3 KIT EX11 DEL/T670I (Homo sapiens, UniProt P10721, T670I, cells depend on it, form not given); test: Ba/F3 KIT mutant viability assay (Cell Titer-Glo), EX11 DEL/T670I; format: cell-based; conditions: 72 hours
Sequence (P10721 with tags, fused parts or gaps DEL557-558/T670I, form open): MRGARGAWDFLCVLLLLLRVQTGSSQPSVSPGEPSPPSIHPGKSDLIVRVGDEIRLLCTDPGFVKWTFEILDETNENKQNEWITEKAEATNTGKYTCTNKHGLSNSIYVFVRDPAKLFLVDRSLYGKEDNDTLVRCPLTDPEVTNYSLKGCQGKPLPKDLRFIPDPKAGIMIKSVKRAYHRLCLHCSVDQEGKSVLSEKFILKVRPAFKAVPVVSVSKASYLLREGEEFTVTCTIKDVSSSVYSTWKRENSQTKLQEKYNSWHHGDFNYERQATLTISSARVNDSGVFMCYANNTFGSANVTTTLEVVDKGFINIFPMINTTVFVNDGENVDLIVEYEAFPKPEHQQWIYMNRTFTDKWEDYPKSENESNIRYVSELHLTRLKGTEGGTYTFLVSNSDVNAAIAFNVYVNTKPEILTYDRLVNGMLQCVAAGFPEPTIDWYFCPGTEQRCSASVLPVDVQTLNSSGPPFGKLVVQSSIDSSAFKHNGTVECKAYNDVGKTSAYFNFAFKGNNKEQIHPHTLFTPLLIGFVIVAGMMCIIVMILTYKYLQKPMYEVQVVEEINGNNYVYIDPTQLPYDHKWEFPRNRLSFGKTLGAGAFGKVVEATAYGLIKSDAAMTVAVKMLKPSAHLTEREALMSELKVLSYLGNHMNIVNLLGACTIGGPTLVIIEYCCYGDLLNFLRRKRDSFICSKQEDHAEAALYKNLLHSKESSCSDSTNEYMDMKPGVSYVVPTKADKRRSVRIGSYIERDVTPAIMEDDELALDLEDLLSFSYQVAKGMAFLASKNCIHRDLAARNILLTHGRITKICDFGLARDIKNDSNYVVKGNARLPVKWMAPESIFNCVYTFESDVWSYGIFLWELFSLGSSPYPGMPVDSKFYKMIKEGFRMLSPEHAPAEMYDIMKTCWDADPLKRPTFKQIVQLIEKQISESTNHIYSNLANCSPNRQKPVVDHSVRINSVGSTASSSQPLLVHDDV

Completed entries (count: 2):
Cc1ccc(NC(=O)c2cc(C(F)(F)F)ccn2)cc1C#Cc1cnc(NC(=O)N2CC[C@H](O)C2)s1 ... < 10 nM
Cc1ccc(NC(=O)c2cc(C(F)(F)F)ccn2)cc1C#Cc1cnc(NC(=O)N2CC[C@H](N(C)C)C2)s1 ... 10 to 50 nM

Consider now this further compound.
Give GI50 for Cc1ccc(NC(=O)c2cc(C(F)(F)F)ccn2)cc1C#Cc1cnc(NC(=O)N2CC(C)(O)C2)s1 10 to 50 nM

---

GI50 reference
target: BAF3 KIT EX11 DEL/T670I (Homo sapiens, UniProt P10721, T670I, cells depend on it, form not given); experiment: Ba/F3 KIT mutant viability assay (Cell Titer-Glo), EX11 DEL/T670I; type: cell-based; conditions: 72 hours

Completed entries (count: 3):
CN[C@H]1CCN(C(=O)Nc2ncc(C#Cc3cc(NC(=O)c4cc(C(F)(F)F)ccn4)ccc3C)s2)C1 [Compound 5a] ... 0.05 to 0.1 µM
Cc1ccc(NC(=O)c2cc(C(F)(F)F)ccn2)cc1C#Cc1cnc(NC(=O)N2CC[C@@H](O)C2)s1 [Compound 2a] ... < 0.01 µM
Cc1ccc(NC(=O)c2cc(C(F)(F)F)ccn2)cc1C#Cc1cnc(NC(=O)N2CC[C@@H](N(C)C)C2)s1 [Compound 1b] ... 0.01 to 0.05 µM

Consider now this further compound.
Give GI50 for Cc1ccc(NC(=O)c2cc(C(F)(F)F)ccn2)cc1C#Cc1cnc(NC(=O)N2CC(O)C2)s1 [Compound 3] 0.01 to 0.05 µM

---

biological target: BAF3 KIT EX11 DEL/V654A (Homo sapiens, UniProt P10721, V654A, cells depend on it, form not given); assay: Ba/F3 KIT mutant viability assay (Cell Titer-Glo), EX11 DEL/V654A; assay type: cell-based; details: 72 hours
Sequence (P10721 with tags, fused parts or gaps DEL557-558/V654A, form open): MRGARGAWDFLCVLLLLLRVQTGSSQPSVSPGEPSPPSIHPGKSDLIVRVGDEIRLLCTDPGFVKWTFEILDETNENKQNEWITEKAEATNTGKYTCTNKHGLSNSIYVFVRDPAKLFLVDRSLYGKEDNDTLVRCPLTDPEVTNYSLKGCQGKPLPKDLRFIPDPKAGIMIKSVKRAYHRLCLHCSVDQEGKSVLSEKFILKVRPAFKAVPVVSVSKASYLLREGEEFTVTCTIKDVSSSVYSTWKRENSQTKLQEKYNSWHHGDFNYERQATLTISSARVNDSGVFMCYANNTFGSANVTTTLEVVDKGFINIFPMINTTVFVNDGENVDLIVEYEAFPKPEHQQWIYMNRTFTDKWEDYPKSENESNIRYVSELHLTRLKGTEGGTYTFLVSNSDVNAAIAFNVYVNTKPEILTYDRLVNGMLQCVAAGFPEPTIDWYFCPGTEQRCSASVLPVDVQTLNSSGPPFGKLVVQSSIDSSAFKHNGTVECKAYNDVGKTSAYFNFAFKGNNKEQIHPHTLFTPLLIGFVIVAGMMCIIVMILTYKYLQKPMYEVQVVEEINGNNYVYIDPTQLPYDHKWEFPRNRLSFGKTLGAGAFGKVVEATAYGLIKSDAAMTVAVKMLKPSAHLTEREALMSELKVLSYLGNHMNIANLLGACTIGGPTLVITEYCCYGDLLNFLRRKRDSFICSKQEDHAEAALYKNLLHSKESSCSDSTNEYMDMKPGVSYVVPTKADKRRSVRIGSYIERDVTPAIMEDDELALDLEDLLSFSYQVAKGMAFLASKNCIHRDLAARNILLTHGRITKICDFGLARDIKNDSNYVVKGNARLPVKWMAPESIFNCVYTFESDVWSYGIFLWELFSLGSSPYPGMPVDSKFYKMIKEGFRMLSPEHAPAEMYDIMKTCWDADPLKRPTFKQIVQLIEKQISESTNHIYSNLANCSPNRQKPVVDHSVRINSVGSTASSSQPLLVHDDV
Result type: GI50

Cc1ccc(NC(=O)c2cc(C(F)(F)F)ccn2)cc1C#Cc1cnc(NC(=O)N2CC[C@@H](O)C2)s1 [Compound 2a] ... < 10 nM
Cc1ccc(NC(=O)c2cc(C(F)(F)F)ccn2)cc1C#Cc1cnc(NC(=O)N2CC[C@@H](N(C)C)C2)s1 [Compound 1b] ... 10 to 50 nM

Consider now this further molecule.
Give GI50 for CN[C@H]1CCN(C(=O)Nc2ncc(C#Cc3cc(NC(=O)c4cc(C(F)(F)F)ccn4)ccc3C)s2)C1 [Compound 5a] 10 to 50 nM

---

biological target: BAF3 KIT EX11 DEL/D816H (Homo sapiens, UniProt P10721, D816H, cells depend on it, form not given); experiment: Ba/F3 KIT mutant viability assay (Cell Titer-Glo), EX11 DEL/D816H; type: cell-based; conditions: 72 hours
Sequence (P10721 with tags, fused parts or gaps DEL557-558/D816H, form open): as the sequence (P10721 with tags, fused parts or gaps DEL557-558/V654A, form open) above, with A652V, D814H counted along it
Result type: GI50

Completed entries (count: 3):
Cc1ccc(NC(=O)c2cc(C(F)(F)F)ccn2)cc1C#Cc1cnc(NC(=O)N2CC[C@@H](O)C2)s1 [Compound 2a] ... < 10 nM
Cc1ccc(NC(=O)c2cc(C(F)(F)F)ccn2)cc1C#Cc1cnc(NC(=O)N2CC(O)C2)s1 [Compound 3] ... 10 to 50 nM
Cc1ccc(NC(=O)c2cc(C(F)(F)F)ccn2)cc1C#Cc1cnc(NC(=O)N2CC(C)(O)C2)s1 [Compound 4] ... 10 to 50 nM

Give GI50 for CN[C@H]1CCN(C(=O)Nc2ncc(C#Cc3cc(NC(=O)c4cc(C(F)(F)F)ccn4)ccc3C)s2)C1 [Compound 5a] 10 to 50 nM

Give GI50 for Cc1ccc(NC(=O)c2cc(C(F)(F)F)ccn2)cc1C#Cc1cnc(NC(=O)N2CC[C@@H](N(C)C)C2)s1 [Compound 1b] 10 to 50 nM

Give GI50 for Cc1ccc(NC(=O)c2cc(C(F)(F)F)ccn2)cc1C#Cc1cnc(NC(=O)N2CC[C@H](O)C2)s1 [Compound 2b] < 10 nM

Give GI50 for Cc1ccc(NC(=O)c2cc(C(F)(F)F)ccn2)cc1C#Cc1cnc(NC(=O)N2CC[C@H](N(C)C)C2)s1 [Compound 1a] 10 to 50 nM

Where do the numbers come from? From patent US20240317731A1.
